- System: PC-3 PIP/flu tumor-bearing mice
- PROTOCOL DESCRIPTION: Biodistribution in PC-3 PIP/flu tumor-bearing mice
- CONDITION INFO: 2 h p.i., i.v.; PSMA^neg xenograft
READOUT: PC-3 flu Tumor

# COMPOUND, TESTED TARGET, READOUT, VAL
data = [
    ("O=C([O-])CN1CCN(CC(=O)[O-])CCN(CC(=O)NCC2CCC(C(=O)N[C@@H](Cc3ccc4ccccc4c3)C(=O)NCCCC[C@H](NC(=O)N[C@@H](CCC(=O)O)C(=O)O)C(=O)O)CC2)CCN(CC(=O)[O-])CC1.[177Lu+3] (stereo partly shown) [^177Lu-PSMA-617]", "PC-3 PIP/flu tumor-bearing mice", "PC-3 flu Tumor", "0.13 ± 0.01 % IA/g"),
    ("O=C([O-])CN1CCN(CC(=O)[O-])CCN(CC(=O)NCC2CCC(C(=O)NC(Cc3ccc4ccccc4c3)C(=O)NCCCCC(NC(=O)NC(CCC(=O)O)C(=O)O)C(=O)O)CC2)CCN(CC(=O)[O-])CC1.[44Sc+3] (stereo not shown) [^44Sc-PSMA-617]", "PC-3 PIP/flu tumor-bearing mice", "PC-3 flu Tumor", "0.32 ± 0.16 % IA/g"),
    ("O=C([O-])CN1CCN(CC(=O)[O-])CCN(CC(=O)NCC2CCC(C(=O)NC(Cc3ccc4ccccc4c3)C(=O)NCCCCC(NC(=O)NC(CCC(=O)O)C(=O)O)C(=O)O)CC2)CCN(CC(=O)[O-])CC1.[68Ga+3] (stereo not shown) [^68Ga-PSMA-617]", "PC-3 PIP/flu tumor-bearing mice", "PC-3 flu Tumor", "0.18 ± 0.03 % IA/g"),
    ("O=C([O-])CN(CCN(CC(=O)[O-])Cc1cc(CCC(=O)NCCCCCC(=O)NCCCC[C@H](NC(=O)N[C@@H](CCC(=O)O)C(=O)O)C(=O)O)ccc1[O-])Cc1cc(CCC(=O)O)ccc1[O-].[68Ga+3] [^68Ga-PSMA-11]", "PC-3 PIP/flu tumor-bearing mice", "PC-3 flu Tumor", "0.13 ± 0.02 % IA/g"),
]

All values here come from paper PMC5247395.
